Tested on: COR-L88 (Small Cell Lung Carcinoma)
Test description: combination Emax (second highest fraction inhibited in the dose matrix, 72 h); higher = more inhibition; extreme values may be limits of the assay
Readout: combination Emax

1. N#Cc1cnc(Nc2cc(NC[C@H]3CNCCO3)c(C(F)(F)F)cn2)cn1 [SRA737] + O=c1[nH]cc(F)c(=O)[nH]1 [5-Fluorouracil] (first compound max 10 µM, 7x7, partner max 20 µM) = 0.435

Lab note: next compound to report on.
Data request: Look up combination Emax with COR-L88 (Small Cell Lung Carcinoma) for this compound: C[C@@H]1COCCN1c1cc(C2([S@](C)(=N)=O)CC2)nc(-c2ccnc3[nH]ccc23)n1 [AZD6738] + C1CC(C1)(C(=O)[O-])C(=O)[O-].N.N.[Pt+2] [Carboplatin] (first compound max 10 µM, 7x7, partner max 10 µM)
Data returned: 0.299

----------
System: BxPC-3 (Pancreatic Carcinoma)
Test description: Bliss excess, mean over the matrix (fraction); higher = more synergy
Known Bliss excess of a selection of compounds
Format: numeric value only, no unit, no commentary.

1. CCc1c2c(nc3ccc(O)cc13)-c1cc3c(c(=O)n1C2)COC(=O)[C@]3(O)CC [SN-38] + CN(C)CCCOc1ccc(-c2ccc3ncc4c(c3c2)n(C2CCOCC2)c(=O)n4C)cn1 [AZD0156] (first compound max 0.3 µM, 7x7, partner max 1 µM) = 0.0025
2. Cc1cc2ncnn2cc1Nc1ncc2c(n1)n(C1CCOCC1)c(=O)n2C [AZD7648] + O=C(c1cc(Cc2n[nH]c(=O)c3ccccc23)ccc1F)N1CCN(C(=O)C2CC2)CC1 [Olaparib] (first compound max 10 µM, 7x7, partner max 10 µM) = -0.0712
3. Cc1c2c(nn1C)CSCc1cc(n(C)n1)CSc1cc(c3ccccc3c1)OCCCc1c(C(=O)O)n(C)c3c-2c(Cl)ccc13 [AZD5991] + CC1(C)CCC(CN2CCN(c3ccc(C(=O)NS(=O)(=O)c4ccc(NCC5CCOCC5)c([N+](=O)[O-])c4)c(Oc4cnc5[nH]ccc5c4)c3)CC2)=C(c2ccc(Cl)cc2)C1 [Venetoclax] (first compound max 1 µM, 7x7, partner max 1 µM) = 0.0411
4. CC1(C)CCC(CN2CCN(c3ccc(C(=O)NS(=O)(=O)c4ccc(NCC5CCOCC5)c([N+](=O)[O-])c4)c(Oc4cnc5[nH]ccc5c4)c3)CC2)=C(c2ccc(Cl)cc2)C1 [Venetoclax] + CS(=O)(=O)CCNCc1ccc(-c2ccc3ncnc(Nc4ccc(OCc5cccc(F)c5)c(Cl)c4)c3c2)o1 [Lapatinib] (first compound max 1 µM, 7x7, partner max 10 µM) = -0.0299
5. Cc1c2c(nn1C)CSCc1cc(n(C)n1)CSc1cc(c3ccccc3c1)OCCCc1c(C(=O)O)n(C)c3c-2c(Cl)ccc13 [AZD5991] + Nc1ccn([C@@H]2O[C@H](CO)[C@@H](O)C2(F)F)c(=O)n1 [Gemcitabine] (first compound max 1 µM, 7x7, partner max 0.3 µM) = 0.0052

Data request: Quick one: Bliss excess for Cc1cc2ncnn2cc1Nc1ncc2c(n1)n(C1CCOCC1)c(=O)n2C [AZD7648] + CCN(CCO)CCCOc1ccc2c(Nc3cc(CC(=O)Nc4cccc(F)c4)[nH]n3)ncnc2c1 [AZD2811] (first compound max 10 µM, 7x7, partner max 1 µM) ?
Data returned: -0.0052

Data request: Quick one: Bliss excess for CC(=O)c1c(C)c2cnc(Nc3ccc(N4CCNCC4)cn3)nc2n(C2CCCC2)c1=O [Palbociclib] + Cn1cnc2c(F)c(Nc3ccc(Br)cc3Cl)c(C(=O)NOCCO)cc21 [Selumetinib] (first compound max 10 µM, 7x7, partner max 10 µM) ?
Data returned: -0.0238

----------
Test system: NCI-H226 (Mesothelioma)
Test description: Bliss excess, mean over the matrix (fraction); higher = more synergy
Outcome: Met for Bliss excess of at least -0.05; Not met for anything lower.

1) Cc1cc2ncnn2cc1Nc1ncc2c(n1)n(C1CCOCC1)c(=O)n2C [AZD7648] + C=CCn1c(=O)c2cnc(Nc3ccc(N4CCN(C)CC4)cc3)nc2n1-c1cccc(C(C)(C)O)n1 [AZD1775] (first compound max 10 µM, partner max 1 µM) = Met

Data request: Entry Cc1c2c(nn1C)CSCc1cc(n(C)n1)CSc1cc(c3ccccc3c1)OCCCc1c(C(=O)O)n(C)c3c-2c(Cl)ccc13 [AZD5991] + CS(=O)(=O)CCNCc1ccc(-c2ccc3ncnc(Nc4ccc(OCc5cccc(F)c5)c(Cl)c4)c3c2)o1 [Lapatinib] (first compound max 1 µM, 7x7, partner max 10 µM) : is its Bliss excess no less than -0.05?
Data returned: Met

Data request: Entry CC1(C)CCC(CN2CCN(c3ccc(C(=O)NS(=O)(=O)c4ccc(NCC5CCOCC5)c([N+](=O)[O-])c4)c(Oc4cnc5[nH]ccc5c4)c3)CC2)=C(c2ccc(Cl)cc2)C1 [Venetoclax] + CS(=O)(=O)CCNCc1ccc(-c2ccc3ncnc(Nc4ccc(OCc5cccc(F)c5)c(Cl)c4)c3c2)o1 [Lapatinib] (first compound max 1 µM, 7x7, partner max 10 µM) : is its Bliss excess no less than -0.05?
Data returned: Met

Data request: Entry Cc1c2c(nn1C)CSCc1cc(n(C)n1)CSc1cc(c3ccccc3c1)OCCCc1c(C(=O)O)n(C)c3c-2c(Cl)ccc13 [AZD5991] + C=CCn1c(=O)c2cnc(Nc3ccc(N4CCN(C)CC4)cc3)nc2n1-c1cccc(C(C)(C)O)n1 [AZD1775] (first compound max 1 µM, partner max 1 µM) : is its Bliss excess no less than -0.05?
Data returned: Met

Data request: Entry CS(=O)(=O)CCNCc1ccc(-c2ccc3ncnc(Nc4ccc(OCc5cccc(F)c5)c(Cl)c4)c3c2)o1 [Lapatinib] + Cn1cnc2c(F)c(Nc3ccc(Br)cc3Cl)c(C(=O)NOCCO)cc21 [Selumetinib] (first compound max 10 µM, 7x7, partner max 10 µM) : is its Bliss excess no less than -0.05?
Data returned: Not met

Data request: Entry Cc1c2c(nn1C)CSCc1cc(n(C)n1)CSc1cc(c3ccccc3c1)OCCCc1c(C(=O)O)n(C)c3c-2c(Cl)ccc13 [AZD5991] + C1CN(CCC1(C(=O)N[C@@H](CCO)C2=CC=C(C=C2)Cl)N)C3=NC=NC4=C3C=CN4 [Capivasertib] (first compound max 1 µM, 7x7, partner max 3 µM) : is its Bliss excess no less than -0.05?
Data returned: Met

----------
Known Bliss excess of a selection of compounds
Test system: PL4 (Pancreatic Carcinoma)
Test description: Bliss excess, mean over the matrix (fraction); higher = more synergy
Format: numeric value only, no unit, no commentary.

1. Cc1c2c(nn1C)CSCc1cc(n(C)n1)CSc1cc(c3ccccc3c1)OCCCc1c(C(=O)O)n(C)c3c-2c(Cl)ccc13 [AZD5991] + C1CN(CCC1(C(=O)N[C@@H](CCO)C2=CC=C(C=C2)Cl)N)C3=NC=NC4=C3C=CN4 [Capivasertib] (first compound max 1 µM, 7x7, partner max 3 µM) = 0.0199

Lab note: next compound to report on.
Data request: Quick one: Bliss excess for CC(=O)c1c(C)c2cnc(Nc3ccc(N4CCNCC4)cn3)nc2n(C2CCCC2)c1=O [Palbociclib] + CN(CC[C@H](CSC1=CC=CC=C1)NC2=C(C=C(C=C2)S(=O)(=O)NC(=O)C3=CC=C(C=C3)N4CCC(CC4)[C@H](C5=CC=CC=C5C6=CC=C(C=C6)Cl)O)S(=O)(=O)C(F)(F)F)CCO [AZD4320] (first compound max 10 µM, 7x7, partner max 1 µM) ?
Data returned: -0.0826

----------
Known combination Emax of a selection of compounds
System: LS-1034 (Colorectal Carcinoma)
Test description: combination Emax (second highest fraction inhibited in the dose matrix, 72 h); higher = more inhibition; extreme values may be limits of the assay
Format: numeric value only, no unit, no commentary.

A selection of reference data follows.
1) N#Cc1cnc(Nc2cc(NC[C@H]3CNCCO3)c(C(F)(F)F)cn2)cn1 [SRA737] + CCc1c2c(nc3ccc(O)cc13)-c1cc3c(c(=O)n1C2)COC(=O)[C@]3(O)CC [SN-38] (first compound max 10 µM, 7x7, partner max 0.3 µM) = 0.873
2) CC(=O)c1c(C)c2cnc(Nc3ccc(N4CCNCC4)cn3)nc2n(C2CCCC2)c1=O [Palbociclib] + Cc1c2c(nn1C)CSCc1cc(n(C)n1)CSc1cc(c3ccccc3c1)OCCCc1c(C(=O)O)n(C)c3c-2c(Cl)ccc13 [AZD5991] (first compound max 10 µM, 7x7, partner max 1 µM) = 0.686

Data request: Quick one: combination Emax for Cc1c2c(nn1C)CSCc1cc(n(C)n1)CSc1cc(c3ccccc3c1)OCCCc1c(C(=O)O)n(C)c3c-2c(Cl)ccc13 [AZD5991] + C[C@@H](Nc1cc(F)cc(F)c1)c1cc(C(=O)N(C)C)cc2c(=O)cc(N3CCOCC3)oc12 [AZD8186] (first compound max 1 µM, 7x7, partner max 3 µM) ?
Data returned: 0.172

Data request: Quick one: combination Emax for Cc1nc(Nc2ncc(C(=O)Nc3c(C)cccc3Cl)s2)cc(N2CCN(CCO)CC2)n1 [Dasatinib] + CC(=O)Nc1cccc(-n2c(=O)n(C3CC3)c(=O)c3c(Nc4ccc(I)cc4F)n(C)c(=O)c(C)c32)c1 [Trametinib] (first compound max 2 µM, 7x7, partner max 1 µM) ?
Data returned: 0.861

Data request: Quick one: combination Emax for COc1cccc(OCCCN)c1-c1cc(Nc2cnc(C#N)cn2)n[nH]1 [Prexasertib] + C=CCn1c(=O)c2cnc(Nc3ccc(N4CCN(C)CC4)cc3)nc2n1-c1cccc(C(C)(C)O)n1 [AZD1775] (first compound max 1 µM, partner max 1 µM) ?
Data returned: 0.835

Data request: Quick one: combination Emax for Cn1cnc2c(F)c(Nc3ccc(Br)cc3Cl)c(C(=O)NOCCO)cc21 [Selumetinib] + CC(C)n1c(=O)n(C)c2cnc3cc(F)c(-c4ccc(OCCCN5CCCCC5)nc4)cc3c21 [AZD1390] (first compound max 10 µM, 7x7, partner max 0.3 µM) ?
Data returned: 0.689

Data request: Quick one: combination Emax for NC1(C(=O)N[C@@H](CCO)c2ccc(Cl)cc2)CCN(c2ncnc3[nH]ccc23)CC1 [Capivasertib] + COc1nnc2ccc(N3CCC(c4ccc(OCCN5CCN(C)C(=O)[C@H]5C)cc4)CC3)nn12 [AZD5153] (first compound max 10 µM, 7x7, partner max 1 µM) ?
Data returned: 0.499

Data request: Quick one: combination Emax for Cn1cnc2c(F)c(Nc3ccc(Br)cc3Cl)c(C(=O)NOCCO)cc21 [Selumetinib] + C[C@@H]1COCCN1C2=NC(=NC(=C2)C3(CC3)[S@](=N)(=O)C)C4=C5C=CNC5=NC=C4 [AZD6738] (first compound max 10 µM, 7x7, partner max 10 µM) ?
Data returned: 0.811

Data request: Quick one: combination Emax for Cc1c2c(nn1C)CSCc1cc(n(C)n1)CSc1cc(c3ccccc3c1)OCCCc1c(C(=O)O)n(C)c3c-2c(Cl)ccc13 [AZD5991] + C=CCn1c(=O)c2cnc(Nc3ccc(N4CCN(C)CC4)cc3)nc2n1-c1cccc(C(C)(C)O)n1 [AZD1775] (first compound max 1 µM, partner max 1 µM) ?
Data returned: 0.481

Data request: Quick one: combination Emax for CCc1c2c(nc3ccc(O)cc13)-c1cc3c(c(=O)n1C2)COC(=O)[C@]3(O)CC [SN-38] + CN(C)CCCOc1ccc(-c2ccc3ncc4c(c3c2)n(C2CCOCC2)c(=O)n4C)cn1 [AZD0156] (first compound max 0.3 µM, 7x7, partner max 1 µM) ?
Data returned: 0.814

Data request: Quick one: combination Emax for C[C@@H]1COCCN1c1cc(C2([S@](C)(=N)=O)CC2)nc(-c2ccnc3[nH]ccc23)n1 [AZD6738] + Nc1ccn([C@@H]2O[C@H](CO)[C@@H](O)C2(F)F)c(=O)n1 [Gemcitabine] (first compound max 10 µM, 7x7, partner max 0.3 µM) ?
Data returned: 0.902

Data request: Quick one: combination Emax for C[C@@H]1COCCN1c1cc(C2([S@](C)(=N)=O)CC2)nc(-c2ccnc3[nH]ccc23)n1 [AZD6738] + O=C(c1cc(Cc2n[nH]c(=O)c3ccccc23)ccc1F)N1CCN(C(=O)C2CC2)CC1 [Olaparib] (first compound max 10 µM, 7x7, partner max 10 µM) ?
Data returned: 0.56
